Just for reference, ChEMBL document CHEMBL3120115 is where these values come from.

Overview of recorded selectivity ratio for various compounds
# ASSAY_TEXT: Selectivity index, ratio of CC50 for cytotoxicity to EC50 for HSV1
# Assay type: toxicity
# ASSAY_CONTEXT: read-out: Ratio CC50/EC50
Please reply with the number alone, leaving off any unit.

>>> df
                              record_smiles  experimental_result
0  N#Cc1c(-c2ccc(Cl)cc2)cc(-c2ccccn2)[nH]c1=O                    1

Pending compound:
Req: Reported selectivity ratio for CC(=O)OC[C@H]1O[C@@H](n2c(-c3ccccn3)cc(-c3ccc(Cl)cc3)c(C#N)c2=O)[C@H](OC(C)=O)[C@@H](OC(C)=O)[C@@H]1OC(C)=O : what is it?
Resp: 1

* * *

# ASSAY_TEXT: Selectivity index, ratio of CC50 for cytotoxicity to EC50 for Influenza A virus H5N1
# Type: toxicity
# ASSAY_CONTEXT: read-out: Ratio CC50/EC50
READOUT_LABEL: selectivity ratio
Please reply with the number alone, leaving off any unit.

In [3]: df
Out[3]:
                              record_smiles      readout_label  experimental_result
0  CC(=O)OC[C@H]1O[C@@H](n2c(-c3cccs3)cc(-c3ccc(C(C)C)cc3)c(C#N)c2=O)[C@H](OC(C)=O)[C@@H](OC(C)=O)[C@@H]1OC(C)=O  selectivity ratio                    1

Pending compound:
Req: Reported selectivity ratio for CC(=O)OC[C@H]1O[C@@H](n2c(-c3ccccn3)cc(-c3ccc(Cl)cc3)c(C#N)c2=O)[C@H](OC(C)=O)[C@@H](OC(C)=O)[C@@H]1OC(C)=O : what is it?
Resp: 1.3

* * *

Overview of recorded EC50 for various molecules
# Tested on: Influenza A virus
# ASSAY_TEXT: Antiviral activity against Influenza A virus H1N1 by cytopathy assay
# Format: functional, organism-based
# number only, unit µM dropped from output

Some molecules with known EC50 results, for comparison:
                              record_smiles  display_unit  experimental_result
0  NC(=O)c1ncn([C@@H]2O[C@H](CO)[C@@H](O)[C@H]2O)n1            µM                   10
1          N#Cc1c(-c2cccs2)cc(-c2cccs2)nc1O            µM                   32

Req: Reported EC50 for N#Cc1c(-c2ccc(Cl)cc2)cc(-c2ccccn2)[nH]c1=O : what is it?
Resp: 26

* * *

# System: Influenza A virus
# ASSAY_TEXT: Antiviral activity against Influenza A virus H3N2 by cytopathy assay
# Format: functional, organism-based
READOUT_LABEL: pEC50
// field semantics: pEC50 = negative decimal log of concentration (mol/L)

Some compounds with known pEC50 results, for comparison:
>>> df
                              record_smiles  readout_label  experimental_result
0          N#Cc1c(-c2cccs2)cc(-c2cccs2)nc1O          pEC50                 4.80
1  CC(=O)OC[C@H]1O[C@@H](n2c(-c3cccs3)cc(-c3cccs3)c(C#N)c2=O)[C@H](OC(C)=O)[C@@H](OC(C)=O)[C@@H]1OC(C)=O          pEC50                 4.40
2  CC(=O)OC[C@H]1O[C@@H](n2c(-c3cccs3)cc(-c3ccc(C(C)C)cc3)c(C#N)c2=O)[C@H](OC(C)=O)[C@@H](OC(C)=O)[C@@H]1OC(C)=O          pEC50                 4.48
3  CC(C)c1ccc(-c2cc(-c3cccs3)[nH]c(=O)c2C#N)cc1          pEC50                 4.66
4  NC(=O)c1ncn([C@@H]2O[C@H](CO)[C@@H](O)[C@H]2O)n1          pEC50                 5.70

Pending compound:
Req: Fill in the recorded pEC50 for this compound, with Influenza A virus as test system: CC(=O)OC[C@H]1O[C@@H](n2c(-c3ccccn3)cc(-c3ccc(Cl)cc3)c(C#N)c2=O)[C@H](OC(C)=O)[C@@H](OC(C)=O)[C@@H]1OC(C)=O
Resp: 4.62
